system: U251 CNS; experiment: NCI tumour cell line growth inhibition, 48 h
Quantity measured: TGI

Here is how some compounds turned out for TGI.
| Compound | Assay value |
| --- | --- |
| COc1ccc(C2C3=C(COC3=O)Oc3cc4c(cc32)OCO4)c(OC)c1 (stereo not drawn) | > 100 µM |
| COC(=O)C1C(C(=O)OC)C2(OC(c3ccc(Cl)cc3)=CC2=O)C12OC(c1ccc(Cl)cc1)=CC2=O (stereo not drawn) | > 100 µM |

For this compound ( Cc1ccc2nc(-c3ccc(N(C)C)c(Br)c3)cn2c1 ), measured TGI is > 100 µM

For CCN(CC)C(=S)SC the compound record lists TGI as > 100 µM

# compound OCCNc1ncnc2c1ncn2Cc1cccc(COc2cccc(OCc3cccc(Cn4cnc5c(NCCO)ncnc54)c3)c2)c1 ; its TGI = 24.7 µM

Recorded TGI (compound CN(C)c1ccc(/C=C(\NC(=O)c2ccccc2)c2nn(C)c(=O)o2)cc1 ): 54.3 µM

Quick note, TGI for Nc1nc(Cl)cc(NCC2(O)CC2)n1 landed at > 100 µM

So for CN1C(=O)N(C)C(O)C(Cl)(Br)C1=O (stereo not drawn) , the logged TGI turned out to be > 100 µM

# compound CC(C)C(=O)C(C)(C)CCc1ccccn1 ; its TGI = > 100 µM

Please fill in: TGI reported for Nc1ccccc1C#C/C=C\C#Cc1ccccc1[N+](=O)[O-] = 18.9 µM

# TGI of CC(CCC(=O)O)C(=O)O (stereo not drawn) = > 100 µM

The compound listed as Cc1cc(S(=O)(=O)Nc2n[nH]c(-c3ccccn3)n2)c(S)cc1Cl shows TGI equal to 67.3 µM

Sample O=c1nc2c(c(-c3ccc(Br)cc3)[nH]1)COC/C2=C\c1ccc(Br)cc1 ; TGI observed: > 50 µM

###

Items are presented alongside their recorded TGI.
system: UO-31 renal; experiment: NCI tumour cell line growth inhibition, 48 h

These solved cases illustrate the format of a correct answer.
| Compound | TGI |
| --- | --- |
| COC(=O)C1C(C(=O)OC)C2(OC(c3ccc(Cl)cc3)=CC2=O)C12OC(c1ccc(Cl)cc1)=CC2=O (centres undefined) | 33.6 µM |
| C=C1C(=O)O[C@H]2[C@H]1CC/C(COC(=O)c1cc3cc(Cl)ccc3[nH]1)=C\CC[C@@]1(C)O[C@@H]21 | 2.56 µM |
| C/C=C/C=C/C=C/C=C/C(=O)O | > 100 µM |
| O=C1NC2CCCCC2N=C1CC(=O)c1ccc(Br)cc1 (centres undefined) | > 100 µM |
| CC1CCC2(NC1)OC1CC3C4CC=C5CC(OC6OC(CO)C(OC7OC(C)C(O)C(O)C7O)C(O)C6OC6OC(C)C(O)C(O)C6O)CCC5(C)C4CCC3(C)C1C2C (centres undefined) | 21.1 µM |
| N.N.N.N.O=C([O-])C(Cl)Cl.O=C([O-])C(Cl)Cl.[Co+3].[O-][Cl+3]([O-])([O-])[O-] | > 100 µM |
| Fc1cc2[nH]ncc2c2c3c(c(-c4cn[nH]c4C(F)(F)F)nc12)C1CCC3C1 (centres undefined) | 1.97 µM |
| CC(C)N1CC2CC(CN(C(=O)c3ccccc3)C2)C1 | > 100 µM |

Now let's try a different one.
# TGI of COc1ccccc1C1Nn2c(nc3ccccc3c2=O)N1c1ccc(C)cc1 (centres undefined) = 21.2 µM
